Biological target: AGTR1 (Homo sapiens)
Construct: host or cells: Pathunter CHO-K1 AGTR1 β-arrestin cell line (CHO-K1)
Test: DiscoveRx β-arrestin2 recruitment assay (enzyme complementation, Pathunter CHO-K1 AGTR1 β-arrestin cell line)
Format: cell-based
Details: DiscoveRx β-arrestin2 recruitment, maximal response
The label depends only on DiscoveRx β-arrestin2 Ymax (%): YES if it is at least 40%, NO if it is smaller.

Given CCc1nc2c(C)cc(C)nc2n1Cc1ccc(-c2cc(-c3cncn3C)ccc2-c2nn[nH]n2)cc1 [Example 58] , state whether its DiscoveRx β-arrestin2 Ymax (%) is at least 40%.
NO

// query: CC1=NC2(CCCC2)C(=O)N1Cc1ccc(-c2cc(-c3ccccc3)ccc2-c2nn[nH]n2)cc1 [Example 110]
NO

# iterate: CCc1nc2c(C)cc(C)nc2n1Cc1ccc(-c2cc(-n3cc(CCO)nn3)ccc2-c2nnn[nH]2)cc1 [Example 226]
NO

Repeat for the following molecule: CCc1nc2c(C)cc(C)nc2n1Cc1ccc(-c2cc(C3=NCCC3)ccc2-c2nn[nH]n2)cc1 [Example 77]
NO

Now consider CCCCC(=O)N(Cc1ccc(-c2cc(-c3ccccc3)ccc2-c2nn[nH]n2)cc1)C1(C(=O)O)CCCCCC1 [Example 277] .
YES

Likewise for CCc1nc2c(C)cc(C)nc2n1Cc1ccc(-c2cc(Oc3ccccn3)ccc2-c2nnn[nH]2)cc1 [Example 247] ?
NO

Field entry: CCc1nc2c(C)cc(C)nc2n1Cc1ccc(-c2cc(-c3ccccc3)ccc2-c2noc(=O)[nH]2)cc1 [Example 32]
YES

Moving on to CCc1nc2c(C)cc(C)nc2n1Cc1ccc(-c2cc(-c3ccccc3OC(F)(F)F)ccc2-c2nn[nH]n2)cc1 [Example 1]
YES

----------
Exercise: for every item that follows, state its recorded log10 of EC50.
Biological target: hAT1R (Homo sapiens)
Experiment: cell-based
Settings: section of the 42nd table ending at r951, example numbering restarts after the DiscoveRx section; read-out: β-arrestin2 EC50
Quick note: numbers are log10 of EC50, with µM as the unit.

Need log10 of EC50, item CCCC1=NC2(CCOC2)C(=O)N1Cc1ccc(-c2cc(-c3cccc(C)c3)ccc2-c2nnn[nH]2)cc1 (single isomer, unassigned) [Example 159]
-1.39

Entry CCC1=NC2(CCOC2)C(=O)N1Cc1ccc(-c2cc(-c3ccccc3O)ccc2-c2nnn[nH]2)cc1 (single isomer, unassigned) [Example 170] please
-0.23

Moving on to `CCOc1nc2cccc(C(=O)O)c2n1Cc1ccc(-c2cc(-n3cc(C(C)C)nn3)ccc2-c2nn[nH]n2)cc1`
-0.12

Another compound: `CCc1nc2c(C)cc(C)nc2n1Cc1ccc(-c2cc(-c3ccccc3O)ccc2-c2nnn[nH]2)cn1`
-1.71

Further, for `CCOc1nc2cccc(C(=O)O)c2n1Cc1ccc(-c2cc(-c3cnc4ccccc4c3)ccc2-c2nn[nH]n2)cc1` ?
-1.61

Try this compound too: `CCc1nc2c(C)cc(C)nc2n1Cc1ccc(-c2cc(-c3cn(CC4CC4)nn3)ccc2-c2nnn[nH]2)cc1`
-0.95

Note, next up: `CCOc1nc2cccc(C(=O)O)c2n1Cc1ccc(-c2cc(N3CCC[C@@H](C)C3)ccc2-c2nn[nH]n2)cc1`
-1.61

// next record `CCc1nc2c(C)cc(C)nc2n1Cc1ccc(-c2cc(-n3cnc4ccccc43)ccc2-c2nnn[nH]2)cc1`
-1.01

And `CCCc1cn(-c2ccc(-c3nnn[nH]3)c(-c3ccc(Cn4c(CC)nc5c(C)cc(C)nc54)cc3)c2)nn1` ?
-0.68

Can you handle `CCc1nc2c(C)cc(C)nc2n1Cc1ccc(-c2cc(-c3cccc(C)c3)ccc2-c2nn[nH]n2)cc1F` next?
-2.24

What do we get for `CCOc1nc2cccc(C(=O)O)c2n1Cc1ccc(-c2cc(-c3cc(OC(F)F)ccn3)ccc2-c2noc(=O)[nH]2)cc1` ?
-1.83

----------
Target: hAT1R (Homo sapiens, UniProt P30556)
Experiment: cell-based
Conditions: agonist mode; read-out: BRET P63 EC50
pEC50: −log10 of the molar value.
measurement.kind: pEC50

Which pEC50 value belongs to `CCc1nc2c(C)cc(C)nc2n1Cc1ccc(-c2cc(-c3cn(Cc4ccccc4)nn3)ccc2-c2nnn[nH]2)cc1` ?
< 4.00

For `CCc1nc2c(C)cc(C)nc2n1Cc1ccc(-c2cc(C3CCCC3)ccc2-c2nn[nH]n2)cc1` then?
< 4.00

What about `CCOc1nc2cccc(C(=O)O)c2n1Cc1ccc(-c2cc(-n3cnc4ccccc43)ccc2-c2nn[nH]n2)cc1` ?
< 5.00

// same read-out, input: `CCc1nc2c(C)cc(C)nc2n1Cc1ccc(-c2cc(-c3ccccn3)ccc2C(=O)O)cc1`
< 4.00

Try this compound too: `CCCCc1nc(Cl)c(C(=O)O)n1Cc1ccc(-c2cc(Oc3cccnc3)ccc2-c2nn[nH]n2)cc1`
< 5.00

Try this compound next: `CCOc1nc2cccc(C(=O)O)c2n1Cc1ccc(-c2cc(-c3cnc4ccccc4c3)ccc2-c2nn[nH]n2)cc1`
< 4.00

Consider next the compound `CCc1nc2c(C)cc(C)nc2n1Cc1ccc(-c2cc(Oc3cncc(OC)c3)ccc2-c2nn[nH]n2)cc1` in the same way.
< 4.00

Try this compound next: `CCc1nc2c(C)cc(C)nc2n1Cc1ccc(-c2cc(Oc3nccs3)ccc2-c2nn[nH]n2)cc1`
< 4.00

Next compound: `CCc1nc2c(C)cc(C)nc2n1Cc1cnc(-c2cc(-c3cccc(C)c3)ccc2C(=O)O)nc1`
< 4.00

And then `CCc1nc2c(C)cc(C)nc2n1Cc1ccc(-c2cc(-n3cc(C4=CCCC4)nn3)ccc2-c2nnn[nH]2)cc1` , what is it?
< 4.00

Cool, now `CCCCc1nc(Cl)c(C(=O)O)n1Cc1ccc(-c2cc(-c3c[nH]c4ccccc34)ccc2-c2nn[nH]n2)cc1`
< 4.00

# repeat for CCCCC1=NC2(CCOC2)C(=O)N1Cc1ccc(-c2cc(-c3ccccc3)ccc2-c2nnn[nH]2)cc1 (single isomer, unassigned) [Example 146]
< 4.00

----------
I'd appreciate it if you could supply pEC50 values for the items below.
Biological target: hAT1R (Homo sapiens)
Sequence (P30556 1-359): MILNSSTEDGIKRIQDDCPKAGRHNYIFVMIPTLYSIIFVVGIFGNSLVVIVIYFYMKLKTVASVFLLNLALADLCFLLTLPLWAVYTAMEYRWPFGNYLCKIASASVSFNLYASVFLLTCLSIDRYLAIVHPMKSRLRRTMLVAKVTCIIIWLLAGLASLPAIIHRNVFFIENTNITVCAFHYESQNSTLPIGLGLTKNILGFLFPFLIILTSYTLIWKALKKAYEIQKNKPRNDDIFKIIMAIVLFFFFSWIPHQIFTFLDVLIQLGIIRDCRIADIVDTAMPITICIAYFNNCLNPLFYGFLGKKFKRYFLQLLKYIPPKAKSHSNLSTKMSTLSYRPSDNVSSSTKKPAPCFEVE
Experiment: cell-based
Settings: agonist mode; read-out: BRET P63 EC50
pEC50: −log10 of the molar value.

pEC50 for `CCc1nc2c(C)cc(C)nc2n1Cc1ccc(-c2cc(-c3cc(F)cc(F)c3)ccc2-c2nn[nH]n2)cc1` ?
< 4.00

Next: `CC1=NC2(CCCC2)C(=O)N1Cc1ccc(-c2cc(-c3ccccc3)ccc2-c2nn[nH]n2)cc1`
< 4.00

Okay, and `CCc1nc2c(C)cc(C)nc2n1Cc1ccc(-c2cc(-n3cnc4ccccc43)ccc2-c2nnn[nH]2)cc1` ?
< 4.00

Same read-out for `CCOc1nc2cccc(C(=O)O)c2n1Cc1ccc(-c2cc(N3CCC[C@@H](C)C3)ccc2-c2noc(=O)[nH]2)cc1` ?
< 5.00

Queued: `CCCc1nc(CC)c(C(N)=O)n1Cc1ccc(-c2cc(-c3ccccc3)ccc2-c2nn[nH]n2)c(C)c1`
< 5.00

Now try CCCCC1=NC2(CCOC2)C(=O)N1Cc1ccc(-c2cc(-c3cccc(C)c3)ccc2-c2nnn[nH]2)cc1 (single isomer, unassigned) [Example 153] .
< 4.00

----------
Biological target: hAT1R (Homo sapiens, UniProt P30556)
Assay: cell-based
Details: Low AT1R Expression; read-out: BRET β-Arrestin2 Low AT1R Expression EC50
pEC50: −log10 of the molar value.
measurement.kind: pEC50

Find pEC50 (hAT1R (Homo sapiens, UniProt P30556)) for the entry CCCCC1=NC2(CCCC2)C(=O)N1Cc1ccc(-c2cc(-c3cncc(C)c3)ccc2-c2nn[nH]n2)cc1 [Example 129]
< 5.00

Repeat for the following molecule: CCCC1=NC2(CCCC2)C(=O)N1Cc1ccc(-c2cc(N3CCC[C@@H](C)C3)ccc2-c2nn[nH]n2)cc1 [Example 117]
< 4.00

And for CCc1nc2c(C)cc(C)nc2n1Cc1ccc(-c2cc(-c3ccc(OC)cc3)ccc2-c2nn[nH]n2)cc1 [Example 14] ?
< 5.00

And what about the molecule CCc1nc2c(C)cc(C)nc2n1Cc1ccc(-c2cc(N3CCCCC3)ccc2-c2nn[nH]n2)cc1 [Example 91] ?
< 5.00
